# Tested on: MCF7 CARM1 KO cells
# MEASUREMENT DESCRIPTION: Quantitative MS of ADMA-containing peptides in MCF7 CARM1 KO cells expressing CARM1 28-608 or CARM1 140-608, and in CARM1 KO
# Assay type: cell-based, human
# COND: CARM1 140-608 vs WT, mean of 3 replicates, log2
ENDPOINT NAME: CARM1 140-608/WT
Just the number, please.

// field: CARM1 140-608/WT; key: "FPAGArYAGAGGLER" ; value = -0.8137

// field: CARM1 140-608/WT; key: "STrGGHMNSGGHAK" ; value = 0.5079

// field: CARM1 140-608/WT; key: "FCAFGGNPPVTGPrSALAPNLLTSGK" ; value = -3.4143

// field: CARM1 140-608/WT; key: "GArGLMNGYR" ; value = 0.7786

// field: CARM1 140-608/WT; key: "SVGQGYSVGQSMrLGLGGNAPVSIPQQSQSVK" ; value = -2.098

// field: CARM1 140-608/WT; key: "NrGAGGFGGGGGTR" ; value = 0.06902

// field: CARM1 140-608/WT; key: "TSSGLFPrIPLQPQAPVSSIGSPVGTPK" ; value = 0.8175

// field: CARM1 140-608/WT; key: "QLPNAGPGAPPALGFSrFPAGArYAGAGGLER" ; value = -2.691

// field: CARM1 140-608/WT; key: "APPGGLHAPrLSLEGAArGAAEAK" ; value = -2.013

// field: CARM1 140-608/WT; key: "MRPQPYGGTNPYSQQQGPPSGPQQGHGYPGQPYGSQTPQrYPMTMQGR" ; value = -0.1711

// field: CARM1 140-608/WT; key: "VREELLrHQLLEK" ; value = -2.55

// field: CARM1 140-608/WT; key: "QLrYQQPGPGSSPSSFLLK" ; value = -1.181

// field: CARM1 140-608/WT; key: "KDLYANTVLSGGSTMYPGIADr" ; value = -0.3764

// field: CARM1 140-608/WT; key: "AVDLTKPYQNQQLSIrVPLR" ; value = -2.717

// field: CARM1 140-608/WT; key: "GArLPGPVSSAR" ; value = -1.788

###

# Tested on: MCF7 cells
# MEASUREMENT DESCRIPTION: Quantitative nanoLC-MS/MS (TMT) of ADMA-containing peptides, CARM1 KO vs parental
# Format: cell-based, human
# Parameters: scale not given here
# COND: ADMA-containing peptide, CARM1 knockout (KO) vs wild type (WT) MCF7 cells; 6-plex TMT experiment #1; three biological replicates each; sheet "MCF7"
ENDPOINT NAME: Fold change KO/WT
Just the number, please.

Summary: "RGPLSQNGSFGPSPVSGGECSPPLTVEPPVrPLSATLNR" , MCF7 cells, Fold change KO/WT = -2.59

Summary: "DCGTLPNrFVITPR" , MCF7 cells, Fold change KO/WT = -0.2619

Summary: "FEGPQGQLGGGCPLrFEGPPGPVGTPLrFEGPIGQAGGGGFR" , MCF7 cells, Fold change KO/WT = -2.35

Summary: "FDGQPGQPSLLPrFDGLHGQPGPrFER" , MCF7 cells, Fold change KO/WT = -2.047

Summary: "GPPPFPGVPLMSTPMGGPVPPPIrYGPPPQLCGPFGPrPLPPPFGPGMrPPLGLREFAPGVPPGrR" , MCF7 cells, Fold change KO/WT = -2.997

Summary: "QGSIGLYTQNQPLPAGGPrVDPYrPVrLPMQK" , MCF7 cells, Fold change KO/WT = -2.292

Summary: "GIPLDAAAAYYLPrHLAPNPTYPHLYPPYLIrGYPDTAALENR" , MCF7 cells, Fold change KO/WT = -1.386

Summary: "SQGAQPQQVTLrLALR" , MCF7 cells, Fold change KO/WT = -1.987

Summary: "FFEAAAGSGSSAGAGDGAGPQrLPEPGGRPR" , MCF7 cells, Fold change KO/WT = -1.059

Summary: "VTrYPILGIPQAHR" , MCF7 cells, Fold change KO/WT = -1.789

Summary: "FEGQHNQLGGNLrFEGPHGQPGVGIrFEGPLVQQGGGMrFEGPSVPGGGLR" , MCF7 cells, Fold change KO/WT = -1.477

Summary: "LHPQLHrAPIR" , MCF7 cells, Fold change KO/WT = 1.076

Summary: "LGrLLGIFEQNQDRKHR" , MCF7 cells, Fold change KO/WT = -0.4775

###

# System: MCF7 CARM1 KO cells
# MEASUREMENT DESCRIPTION: Quantitative MS of ADMA-containing peptides in MCF7 CARM1 KO cells expressing CARM1 28-608 or CARM1 140-608, and in CARM1 KO
# Assay type: cell-based, human
# COND: CARM1 KO versus WT, difference of mean log2 values
Rule: KO/WT below -2 gives condition met. Equal to or above -2 gives condition not met.

Q: Here's an entry: "GTPGPPPAHGAALQPHPrVNFCPLPSEQCYQAPGGPEDR" . Is its KO/WT below -2?
Result: condition not met

Q: Here's an entry: "GSGTGIYSNAAPPPVTYQGNLYrPLLR" . Is its KO/WT below -2?
Result: condition not met

Q: Here's an entry: "QrGVSHAMGGrGGINrGNIN" . Is its KO/WT below -2?
Result: condition not met

Q: Here's an entry: "LLPAPrAYLVPENFR" . Is its KO/WT below -2?
Result: condition not met

Q: Here's an entry: "NPHTLGLSrYHPYGK" . Is its KO/WT below -2?
Result: condition not met

Q: Here's an entry: "LINFQNHSPKPNGPVLPPHPQQLrYPPNQNIPR" . Is its KO/WT below -2?
Result: condition not met

Q: Here's an entry: "SLCASTLTVSSGSSrGSLASSrGSLASSR" . Is its KO/WT below -2?
Result: condition not met

Q: Here's an entry: "YSAFQLAPFQDHGLPAVSVDSPVrYK" . Is its KO/WT below -2?
Result: condition met

Q: Here's an entry: "IPGIPrHSGPQYSMMQPHLQR" . Is its KO/WT below -2?
Result: condition not met

Q: Here's an entry: "KYPLPPPSGrYNWN" . Is its KO/WT below -2?
Result: condition met

Q: Here's an entry: "HQQLQQMrMQQPPAPVPTTTTTTQQHPrQAAPQMLQQQPPrLISVQTMQR" . Is its KO/WT below -2?
Result: condition met

Q: Here's an entry: "TDGFAEAIHSPQVAGVPrFR" . Is its KO/WT below -2?
Result: condition not met

Q: Here's an entry: "ErDMQYVQR" . Is its KO/WT below -2?
Result: condition not met

Q: Here's an entry: "VIGTAVArYNFAAR" . Is its KO/WT below -2?
Result: condition met

Q: Here's an entry: "YPLPPPSGrYNWN" . Is its KO/WT below -2?
Result: condition not met

Q: Here's an entry: "DVEAATGQDLGSSrYSGK" . Is its KO/WT below -2?
Result: condition not met

Q: Here's an entry: "GPrFEGNrPDGPrPrYEGHPAEGTK" . Is its KO/WT below -2?
Result: condition met

Q: Here's an entry: "CDPVPAANGAIrFHCDPTFWAK" . Is its KO/WT below -2?
Result: condition not met

Q: Here's an entry: "LAQNAArIPGIPrHSGPQYSMMQPHLQR" . Is its KO/WT below -2?
Result: condition met

Q: Here's an entry: "SSYLESPrGPrFDGPR" . Is its KO/WT below -2?
Result: condition met

Q: Here's an entry: "QAAPQMLQQQPPrLISVQTMQR" . Is its KO/WT below -2?
Result: condition not met

Q: Here's an entry: "SGSNWGrGSNMNSGPPR" . Is its KO/WT below -2?
Result: condition not met

Q: Here's an entry: "KVPQPCSSATLNrLTVPrYSIPTGDPPPYPEIASQLAQGR" . Is its KO/WT below -2?
Result: condition met

Q: Here's an entry: "LTVPrYSIPTGDPPPYPEIASQLAQGR" . Is its KO/WT below -2?
Result: condition met

Q: Here's an entry: "TPLLGDGPrAPFNQEGQSTGPPPLIPGLGQQGAQGR" . Is its KO/WT below -2?
Result: condition met

Q: Here's an entry: "SAPFFIPTIPGLVPrYAAPEQNNDPQQSK" . Is its KO/WT below -2?
Result: condition met

Q: Here's an entry: "GrGALLQDICK" . Is its KO/WT below -2?
Result: condition not met

Q: Here's an entry: "TPGQINLAQLrLQHMQQQVYAQK" . Is its KO/WT below -2?
Result: condition met

Q: Here's an entry: "LINFQNHSPKPNGPVLPPHPQQLrYPPNQNIPrQAIKPNPLQMAFLAQQAIK" . Is its KO/WT below -2?
Result: condition met

Q: Here's an entry: "GPrFEGNRPDGPrPrYEGHPAEGTK" . Is its KO/WT below -2?
Result: condition met

Q: Here's an entry: "SHLSTAGGLAVPSLPTAGPYYSPYALYGQrLASASALGYQ" . Is its KO/WT below -2?
Result: condition met

Q: Here's an entry: "LITFQLrHILK" . Is its KO/WT below -2?
Result: condition met
